Origin of measurements: the supplement of paper PMC10307832

# Test system: LXF-289
# experimental_details: relative viability (nuclei count vs DMSO), 5 days (fraction); higher = more cells survive
# cond: first compound 4 µM
measured_parameter: relative viability

compound	assay_system	relative viability
Clc1ccc(Nc2nnc(Cc3ccncc3)c3ccccc23)cc1 [Vatalanib] + N=C(N)NC(=N)NCCc1ccccc1 [Phenformin] (partner 250 µM)	LXF-289	0.539
COc1cc(N2CCC(C(N)=O)CC2)ccc1Nc1nc(N)c(Cl)c(Nc2ccccc2S(=O)(=O)C(C)C)n1 [HG-5-88-01] + O=C(c1cc(Cc2n[nH]c(=O)c3ccccc23)ccc1F)N1CCN(C(=O)C2CC2)CC1 [Olaparib] (partner 8 µM)	LXF-289	1.08
Clc1ccc(Nc2nnc(Cc3ccncc3)c3ccccc23)cc1 [Vatalanib] + COc1cccc2cc(-c3nc([C@H]4CC[C@H](C(=O)O)CC4)n4ncnc(N)c34)[nH]c12 [OSI-027] (partner 0.5 µM)	LXF-289	0.761
C[C@@H]1CN(CC(=O)Nc2ccc3c(c2)Cc2cccc(-c4cc(=O)cc(N5CCOCC5)o4)c2S3)C[C@H](C)O1 + C[C@]1(O)C[C@@H](c2nc(-c3ccc4ccc(-c5ccccc5)nc4c3)c3c(N)nccn32)C1 [Linsitinib] (partner 1 µM)	LXF-289	0.933

Turning now to a further record.
-- ask Form field: reported relative viability of Clc1ccc(Nc2nnc(Cc3ccncc3)c3ccccc23)cc1 [Vatalanib] + CC1(C)CCC(c2ccc(Cl)cc2)=C(CN2CCN(c3ccc(C(=O)NS(=O)(=O)c4ccc(N[C@H](CCN5CCOCC5)CSc5ccccc5)c(S(=O)(=O)C(F)(F)F)c4)cc3)CC2)C1 [Navitoclax] (partner 0.5 µM)
-- reply 0.899
